- measured.on: rat EP1 receptor (Rattus norvegicus, UniProt P70597)
- Sequence (P70597 1-405): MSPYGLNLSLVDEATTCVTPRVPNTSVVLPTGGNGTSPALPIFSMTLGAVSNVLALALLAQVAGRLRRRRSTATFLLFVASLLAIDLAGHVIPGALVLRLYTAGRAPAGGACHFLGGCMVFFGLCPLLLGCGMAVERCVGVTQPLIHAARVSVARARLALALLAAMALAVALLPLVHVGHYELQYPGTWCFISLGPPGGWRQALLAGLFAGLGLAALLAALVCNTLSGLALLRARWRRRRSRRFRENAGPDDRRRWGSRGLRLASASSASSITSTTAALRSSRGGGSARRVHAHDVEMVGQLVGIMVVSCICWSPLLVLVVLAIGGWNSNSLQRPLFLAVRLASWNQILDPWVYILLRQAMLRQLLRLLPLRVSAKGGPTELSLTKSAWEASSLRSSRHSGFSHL
- assay.notes: Test for confirmation of EP1 receptor antagonism (inhibition of PGE2-induced increase in intracellular calcium concentration)
- measurement.parameters: rat EP1 receptor-expressing COS-1 cells; prostaglandin E2 10 nM; fluorescent calcium indicator, FDSS 7000
assay.endpoint: IC50 (nM)

Sample records with IC50:
smiles.repr | measured.on | quantity.unit | IC50
CS(=O)(=O)NC(=O)c1cccc(Cc2c(-c3ccccc3)[nH]c3cc(Cl)ccc23)n1 | rat EP1 receptor (Rattus norvegicus, UniProt P70597) | nM | 78
Cc1ccc2c(Cc3cccc(-c4noc(=O)[nH]4)n3)c(-c3ccoc3)[nH]c2c1 | rat EP1 receptor (Rattus norvegicus, UniProt P70597) | nM | 37
COc1ccc2c(Cc3cccc(-c4nnn[nH]4)n3)c(C3(C)CC3)[nH]c2c1 | rat EP1 receptor (Rattus norvegicus, UniProt P70597) | nM | 11
COc1ccc2c(Cc3cccc(-c4noc(=O)[nH]4)n3)c(-c3ccccc3)[nH]c2c1 | rat EP1 receptor (Rattus norvegicus, UniProt P70597) | nM | 26
COc1ccc2c(Cc3cccc(C(=O)NS(=O)(=O)C4CC4)n3)c(-c3ccccc3)[nH]c2c1 | rat EP1 receptor (Rattus norvegicus, UniProt P70597) | nM | 47

A. COc1ccc2c(Cc3cccc(-c4nnn[nH]4)n3)c(-c3csc(C)c3)[nH]c2c1
B. CCS(=O)(=O)NC(=O)c1cccc(Cc2c(-c3ccoc3)[nH]c3cc(OC)ccc23)n1
C. COc1ccc2c(Cc3cccc(-c4nnn[nH]4)n3)c(-c3ccsc3)[nH]c2c1
D. COc1ccc2c(Cc3cccc(-c4noc(=O)[nH]4)n3)c(C3(C)CC3)[nH]c2c1
E. CCS(=O)(=O)NC(=O)c1cccc(Cc2c(-c3csc(C)c3)[nH]c3cc(OC)ccc23)n1
### Prompt Provide the items ranked by increasing IC50. Labels, requested order.
### Response C, A, D, B, E
(C: 12 nM, A: 26 nM, D: 39 nM, B: 58 nM, E: 86 nM)

P. CCS(=O)(=O)NC(=O)c1cccc(Cc2c(-c3ccccc3)[nH]c3cc(C)c(C)cc23)n1
Q. COc1ccc2c(Cc3cccc(-c4nnn[nH]4)n3)c(-c3ccc(F)cc3)[nH]c2c1
### Prompt Select one. Lower IC50: P or Q // respond with label for picked entry
### Response Q

P. CCS(=O)(=O)NC(=O)c1cccc(Cc2c(-c3ccccc3)[nH]c3cc(C4CC4)ccc23)n1
Q. COc1cc2c(Cc3cccc(-c4nnn[nH]4)n3)c(C3(C)CC3)[nH]c2cc1Cl
### Prompt Between these two entries, P and Q , state which has the higher IC50. // respond with label for picked entry
### Response P
(P: 66 nM, Q: 27 nM)

I. CCS(=O)(=O)NC(=O)c1cccc(Cc2c(-c3ccccc3)[nH]c3cc(OC)c(F)cc23)n1
II. COc1cc2[nH]c(C3(C)CC3)c(Cc3cccc(-c4nnn[nH]4)n3)c2cc1C
### Prompt Between these two entries, I and II , state which has the higher IC50. // respond with label for picked entry
### Response I
